- experimental target: rh-α5β1 (Homo sapiens, UniProt P05556+P08648)
- Sequence (P08648 42-894 limits assumed): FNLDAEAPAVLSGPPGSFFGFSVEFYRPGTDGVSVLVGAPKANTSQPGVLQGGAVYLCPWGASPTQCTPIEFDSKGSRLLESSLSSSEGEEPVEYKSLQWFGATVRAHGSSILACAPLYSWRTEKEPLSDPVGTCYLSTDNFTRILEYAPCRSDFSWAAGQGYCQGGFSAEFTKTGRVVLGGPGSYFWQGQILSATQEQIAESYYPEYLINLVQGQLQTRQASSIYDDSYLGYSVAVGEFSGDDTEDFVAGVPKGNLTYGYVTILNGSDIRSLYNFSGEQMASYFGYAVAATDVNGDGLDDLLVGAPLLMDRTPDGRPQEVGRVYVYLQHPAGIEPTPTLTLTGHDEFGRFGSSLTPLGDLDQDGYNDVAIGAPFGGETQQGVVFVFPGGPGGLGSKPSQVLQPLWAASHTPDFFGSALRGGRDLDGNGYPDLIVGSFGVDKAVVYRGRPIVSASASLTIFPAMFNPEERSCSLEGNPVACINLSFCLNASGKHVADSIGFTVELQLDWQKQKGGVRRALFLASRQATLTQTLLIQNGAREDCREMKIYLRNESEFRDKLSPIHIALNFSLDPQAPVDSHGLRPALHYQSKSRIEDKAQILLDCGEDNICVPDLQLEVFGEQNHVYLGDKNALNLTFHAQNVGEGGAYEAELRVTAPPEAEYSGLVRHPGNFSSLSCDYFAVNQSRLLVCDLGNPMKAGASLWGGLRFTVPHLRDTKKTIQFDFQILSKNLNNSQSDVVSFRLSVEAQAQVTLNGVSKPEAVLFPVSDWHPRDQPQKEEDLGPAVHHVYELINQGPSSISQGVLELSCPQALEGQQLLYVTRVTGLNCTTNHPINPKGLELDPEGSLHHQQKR
- Sequence (P08648 895-995 limits assumed): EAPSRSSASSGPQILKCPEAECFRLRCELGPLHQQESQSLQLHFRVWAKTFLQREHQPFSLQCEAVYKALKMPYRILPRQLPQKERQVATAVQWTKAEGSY
- Sequence (P05556 21-728 limits assumed): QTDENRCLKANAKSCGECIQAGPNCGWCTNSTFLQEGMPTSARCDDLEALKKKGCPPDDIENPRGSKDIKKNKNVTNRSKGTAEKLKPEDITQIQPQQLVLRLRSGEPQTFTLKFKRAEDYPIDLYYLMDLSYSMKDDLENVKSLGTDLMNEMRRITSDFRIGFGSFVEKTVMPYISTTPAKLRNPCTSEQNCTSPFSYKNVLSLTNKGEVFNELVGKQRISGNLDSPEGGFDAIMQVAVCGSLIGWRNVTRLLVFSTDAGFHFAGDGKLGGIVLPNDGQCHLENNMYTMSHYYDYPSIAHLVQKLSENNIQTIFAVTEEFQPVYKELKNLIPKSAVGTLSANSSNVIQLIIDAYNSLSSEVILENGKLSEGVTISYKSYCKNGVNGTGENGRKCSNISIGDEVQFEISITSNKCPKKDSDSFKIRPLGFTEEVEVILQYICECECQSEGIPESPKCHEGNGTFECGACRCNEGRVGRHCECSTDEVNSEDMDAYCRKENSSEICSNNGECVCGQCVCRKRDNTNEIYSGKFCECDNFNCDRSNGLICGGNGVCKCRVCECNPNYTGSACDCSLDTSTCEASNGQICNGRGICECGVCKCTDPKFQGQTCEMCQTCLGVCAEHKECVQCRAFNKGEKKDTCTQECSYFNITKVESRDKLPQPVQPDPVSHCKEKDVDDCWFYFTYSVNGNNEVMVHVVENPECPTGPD
- procedure text: Competition binding studies by Biolayer Interferometry (epitope groups)
- reported conditions: immobilized mAb A2-7A05; secondary mAb pre-mixed with 20 nM rh-α5β1
Measured Response (nm), listed per entry.
quantity kind: Response (nm)

molecule="A-15B08: anti-α5β1 antibody, VH SEQ ID NO:25, VL SEQ ID NO:26; tested as mouse hybridoma antibody and as human IgG4 chimera (antibody, V domains shown, A-15B08 VH Sequence; A-15B08 VL Sequence, tested as mouse hybridoma antibody and as human IgG4 chimera) VH: QVQLKESGPGLVAPSQSLSITCTISGFSLTSYGVHWVRQPPGKGLEWLVVIWSDGSTTYNSTLKSRLSISKDNSKSQVFFKMNSLQTDDTAMYYCARHYDYDGDWFAYWGQGTLVTVSA VL: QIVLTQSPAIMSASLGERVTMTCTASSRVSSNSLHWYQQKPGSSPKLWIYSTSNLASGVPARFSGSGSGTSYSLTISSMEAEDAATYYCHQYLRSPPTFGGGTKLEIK" scale_unit=nm value_reported=0.25
molecule="A2-5D10: anti-α5β1 antibody, VH SEQ ID NO:51, VL SEQ ID NO:52 (antibody, V domains shown, A2-5D10 VH Sequence; A2-5D10 VL Sequence) VH: QVQLKESGPGLVAPSQSLSITCTISGFSLTSYGVHWVRQPPGKGLEWLVVIWSDGSTTYNSTLKSRLSISKDNSKSQVFLKMNSLQTDDTAMYYCARHYDYDGDWFAYWGQGTLVTVSA VL: QILLTQSPAIMSASLGERVTMTCTASSSVSSRCLHWYQQKPGSSPKLWIYSTSNLASGVPARFRGSGSGTSYSLTISSMEAEDAATYYCHQYYRSPPTFGGGTKLEIK" scale_unit=nm value_reported=0.17
molecule="A2-7A05: anti-α5β1 antibody, VH SEQ ID NO:77, VL SEQ ID NO:78; tested as mouse hybridoma antibody and as human IgG4 chimera (antibody, V domains shown, A2-7A05 VH Sequence; A2-7A05 VL Sequence, tested as mouse hybridoma antibody and as human IgG4 chimera) VH: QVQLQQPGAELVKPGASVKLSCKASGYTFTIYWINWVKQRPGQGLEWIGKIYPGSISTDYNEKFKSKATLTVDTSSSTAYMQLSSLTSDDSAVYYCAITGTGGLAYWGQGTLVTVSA VL: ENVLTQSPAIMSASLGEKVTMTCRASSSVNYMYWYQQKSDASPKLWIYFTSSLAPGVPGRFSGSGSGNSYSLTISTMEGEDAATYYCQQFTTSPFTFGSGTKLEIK" scale_unit=nm value_reported=−0.17
molecule="A2-3B06: anti-α5β1 antibody, VH SEQ ID NO:42, VL SEQ ID NO:43 (antibody, V domains shown, A2-3B06 VH Sequence; A2-3B06 VL Sequence) VH: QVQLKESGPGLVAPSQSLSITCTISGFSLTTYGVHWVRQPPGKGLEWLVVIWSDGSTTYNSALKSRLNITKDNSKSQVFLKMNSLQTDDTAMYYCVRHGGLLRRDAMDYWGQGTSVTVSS VL: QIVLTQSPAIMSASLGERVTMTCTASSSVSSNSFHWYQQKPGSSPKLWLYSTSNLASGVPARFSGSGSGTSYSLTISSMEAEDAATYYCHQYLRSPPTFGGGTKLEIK" scale_unit=nm value_reported=0.07
